Target: Dual specificity calcium/calmodulin-dependent 3',5'-cyclic nucleotide phosphodiesterase 1A (Homo sapiens, UniProt P54750)
Sequence (P54750 whole entry): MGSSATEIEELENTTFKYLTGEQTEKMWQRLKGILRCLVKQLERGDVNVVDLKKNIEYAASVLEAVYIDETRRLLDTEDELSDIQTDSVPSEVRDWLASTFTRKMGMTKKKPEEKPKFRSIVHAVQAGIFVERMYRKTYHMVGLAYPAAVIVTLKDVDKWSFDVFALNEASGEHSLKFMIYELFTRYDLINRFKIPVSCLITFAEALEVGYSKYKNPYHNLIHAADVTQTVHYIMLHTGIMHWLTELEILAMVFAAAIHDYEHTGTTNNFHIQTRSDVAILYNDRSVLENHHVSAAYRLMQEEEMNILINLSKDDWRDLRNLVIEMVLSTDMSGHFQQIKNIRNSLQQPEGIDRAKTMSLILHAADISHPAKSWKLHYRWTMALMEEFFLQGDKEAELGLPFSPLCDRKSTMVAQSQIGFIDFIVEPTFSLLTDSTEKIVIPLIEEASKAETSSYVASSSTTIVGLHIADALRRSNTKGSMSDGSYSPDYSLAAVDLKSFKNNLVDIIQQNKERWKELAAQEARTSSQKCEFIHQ
Assay: Inhibition of PDE1A (unknown origin)
Here the recorded IC50 is given for each entry.
reported property: IC50

> print(dat)
                           molecular.string  reported.property  reported
1            N#Cc1ccc(Oc2ccc3c(c2)COB3O)cc1               IC50   5600 nM
2  OB1OCc2cc(Oc3ccc4cc(C(F)(F)F)ccc4n3)ccc21               IC50   64.7 nM

---

System: Mus musculus
Assay: Antiinflammatory activity against PMA-induced ICR mouse ear oedema model assessed as reduction in ear swelling at 1 mg/ear topically administered and measured after 4 hrs
Assay type: functional
In this section we review reported inhibition (INH) values for a set of compounds.
reported property: inhibition (INH) (%)

> print(dat)
                           molecular.string  reported
1   CC(=O)c1cccc2nc(Oc3ccc4c(c3)COB4O)ccc12     39.56
2  COC(=O)c1cc(Oc2ccc3c(c2)COB3O)nc2ccccc12      30.6
3  COC(=O)c1cccc2nc(Oc3ccc4c(c3)COB4O)ccc12     55.62
4            N#Cc1ccc(Oc2ccc3c(c2)COB3O)cc1     43.55

---

Target: 3',5'-cyclic-AMP phosphodiesterase 4B (Homo sapiens, UniProt Q07343)
Sequence (Q07343 whole entry): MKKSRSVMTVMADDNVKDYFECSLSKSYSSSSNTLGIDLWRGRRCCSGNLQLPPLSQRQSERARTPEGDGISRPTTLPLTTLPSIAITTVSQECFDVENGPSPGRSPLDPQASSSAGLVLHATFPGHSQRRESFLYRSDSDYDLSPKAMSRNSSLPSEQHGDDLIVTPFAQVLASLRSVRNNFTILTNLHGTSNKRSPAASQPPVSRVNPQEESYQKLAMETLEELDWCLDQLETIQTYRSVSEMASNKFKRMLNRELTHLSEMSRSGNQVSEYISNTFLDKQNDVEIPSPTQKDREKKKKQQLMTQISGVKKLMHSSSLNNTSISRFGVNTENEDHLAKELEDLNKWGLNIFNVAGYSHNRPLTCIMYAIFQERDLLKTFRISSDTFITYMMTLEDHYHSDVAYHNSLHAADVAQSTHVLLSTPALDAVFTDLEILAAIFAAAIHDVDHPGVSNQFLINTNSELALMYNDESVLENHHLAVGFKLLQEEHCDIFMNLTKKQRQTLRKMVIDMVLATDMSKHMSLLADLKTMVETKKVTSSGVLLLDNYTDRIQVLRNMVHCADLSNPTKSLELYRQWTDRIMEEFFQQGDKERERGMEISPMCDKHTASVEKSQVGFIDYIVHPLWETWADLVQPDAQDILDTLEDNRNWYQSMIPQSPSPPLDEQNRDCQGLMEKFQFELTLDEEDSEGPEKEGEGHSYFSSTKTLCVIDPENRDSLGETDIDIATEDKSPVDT
Test: Inhibition of PDE4B (unknown origin) assessed as hydrolysis of [3H]-cAMP into [3H]-AMP incubated for 30 mins by scintillation of proximity assay
IC50 by entry:
reported property: IC50 (nM)

> print(dat)
                           molecular.string                             system.tested  reported.property  endpoint.unit  reported
1  CCOC(=O)c1cccc2nc(Oc3ccc4c(c3)COB4O)ccc12  3',5'-cyclic-AMP phosphodiesterase 4B (Homo sapiens, UniProt Q07343)               IC50             nM      17.3
2   CC(=O)c1ccc2nc(Oc3ccc4c(c3)COB4O)ccc2c1  3',5'-cyclic-AMP phosphodiesterase 4B (Homo sapiens, UniProt Q07343)               IC50             nM      3.57
3   CC(=O)c1cccc2nc(Oc3ccc4c(c3)COB4O)ccc12  3',5'-cyclic-AMP phosphodiesterase 4B (Homo sapiens, UniProt Q07343)               IC50             nM      3.05

---

Test system: Mus musculus
Assay: Antiinflammatory activity against PMA-induced ICR mouse ear oedema model assessed as reduction in ear swelling at 1 mg/ear topically administered and measured after 4 hrs
Format: functional
This listing pairs molecules with measured inhibition (INH).
reported property: inhibition (INH) (%)

> print(dat)
                           molecular.string  endpoint.unit  reported
1  OB1OCc2cc(Oc3ccc4cc(C(F)(F)F)ccc4n3)ccc21              %     65.85
2  OB1OCc2cc(Oc3ccc4c(C(F)(F)F)cccc4n3)ccc21              %     58.05
3   CC(=O)c1ccc2nc(Oc3ccc4c(c3)COB4O)ccc2c1              %     34.09
4   O=C(O)c1cccc2nc(Oc3ccc4c(c3)COB4O)ccc12              %     45.76
5  CCOC(=O)c1cccc2nc(Oc3ccc4c(c3)COB4O)ccc12              %     57.69
6  COC(=O)c1ccc2nc(Oc3ccc4c(c3)COB4O)ccc2c1              %     54.72

---

As a worked illustration, we turn to IC50 data collected for cAMP and cAMP-inhibited cGMP 3',5'-cyclic phosphodiesterase 10A (Homo sapiens).
reported property: IC50

> print(dat)
                           molecular.string  reported
1  OB1OCc2cc(Oc3ccc4cc(C(F)(F)F)ccc4n3)ccc21   4.52 µM
2            N#Cc1ccc(Oc2ccc3c(c2)COB3O)cc1   97.6 µM

---

Biological target: 3',5'-cyclic-AMP phosphodiesterase 4B (Homo sapiens, UniProt Q07343)
Test: Inhibition of PDE4B (unknown origin) assessed as hydrolysis of [3H]-cGMP into [3H]-GMP incubated for 30 mins by scintillation of proximity assay
Conditions: in the assay text read “[3H]-cAMP into [3H]-AMP” for “[3H]-cGMP into [3H]-GMP”
pIC50: −log10 of the molar value.
Listing of entries alongside the reported pIC50.
reported property: pIC50

> print(dat)
                                    compound  reported
 1   COC(=O)c1cnn2ccc(Oc3ccc4c(c3)COB4O)nc12      7.34
 2  COC(=O)c1cccc2nc(Oc3ccc4c(c3)COB4O)ccc12      8.19
 3  COC(=O)c1cc(Oc2ccc3c(c2)COB3O)nc2ccccc12      8.08
 4  COC(=O)c1cccc2cc(Oc3ccc4c(c3)COB4O)ccc12      7.66
 5  N#Cc1ccc(Oc2ccc3c(c2)COB3O)cc1 [CRISABOROLE]      7.24
 6       O=c1ccoc2cc(Oc3ccc4c(c3)COB4O)ccc12      7.72
 7  CC1(C)CC(=O)c2ccc(Oc3ccc4c(c3)COB4O)cc2O1      7.18
 8  OB1OCc2cc(Oc3ccc4c(C(F)(F)F)cccc4n3)ccc21      8.19
 9  OB1OCc2cc(Oc3ccc4cc(C(F)(F)F)ccc4n3)ccc21      9.38
10  COC(=O)c1ccc2nc(Oc3ccc4c(c3)COB4O)ccc2c1      7.97
11      N#Cc1ccc2cc(Oc3ccc4c(c3)COB4O)ccc2c1      7.59
12   O=C(O)c1cccc2nc(Oc3ccc4c(c3)COB4O)ccc12      6.91

---

Endpoint: IC50. System: High affinity 3',5'-cyclic-AMP phosphodiesterase 7A (Homo sapiens, UniProt Q13946). Items follow.
Sequence (Q13946 whole entry): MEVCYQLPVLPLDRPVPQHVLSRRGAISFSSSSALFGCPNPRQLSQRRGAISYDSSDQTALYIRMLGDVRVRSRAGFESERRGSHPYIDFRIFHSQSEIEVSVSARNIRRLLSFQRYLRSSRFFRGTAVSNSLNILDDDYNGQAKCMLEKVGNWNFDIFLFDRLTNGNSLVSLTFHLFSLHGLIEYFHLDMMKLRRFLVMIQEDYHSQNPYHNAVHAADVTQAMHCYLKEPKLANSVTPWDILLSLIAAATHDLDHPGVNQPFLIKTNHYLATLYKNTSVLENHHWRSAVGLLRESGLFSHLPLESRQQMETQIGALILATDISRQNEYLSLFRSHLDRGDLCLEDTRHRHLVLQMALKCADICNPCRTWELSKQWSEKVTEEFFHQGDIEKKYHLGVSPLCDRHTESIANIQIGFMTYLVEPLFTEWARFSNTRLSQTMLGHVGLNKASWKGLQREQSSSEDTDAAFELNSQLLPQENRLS
reported property: IC50 (nM)

> print(dat)
                           molecular.string  reported.property  reported
1            N#Cc1ccc(Oc2ccc3c(c2)COB3O)cc1               IC50      2030
2  OB1OCc2cc(Oc3ccc4cc(C(F)(F)F)ccc4n3)ccc21               IC50      34.7

Sourced from ChEMBL document CHEMBL4813940
